For each of the sequences below, state its solubility change mitosis (log2).
Test system: HeLa Kyoto;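 also: synchronized HeLa Kyoto cells (double thymidine block for G1/S, nocodazole release for mitosis), protein amounts in NP-40 versus SDS lysates quantified by mass spectrometry, three biological replicates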
Test: solubility change mitosis vs G1/S (difference of NP-40 vs SDS log2 ratios) (log2 ratio difference); higher = more soluble in mitosis
Answer with a number only.

Entry under test: MAAEGWIWRWGWGRRCLGRPGLLGPGPGPTTPLFLLLLLGSVTADITDGNSEHLKREHSLIKPYQGVGSSSMPLWDFQGSTMLTSQYVRLTPDERSKEGSIWNHQPCFLKDWEMHVHFKVHGTGKKNLHGDGIALWYTRDRLVPGPVFGSKDNFHGLAIFLDTYPNDETTERVFPYISVMVNNGSLSYDHSKDGRWTELAGCTADFRNRDHDTFLAVRYSRGRLTVMTDLEDKNEWKNCIDITGVRLPTGYYFGASAGTGDLSDNHDIISMKLFQLMVEHTPDEESIDWTKIEPSVNFLKSPKDNVDDPTGNFRSGPLTGWRVFLLLLCALLGIVVCAVVGAVVFQKRQERNKRFY [LMAN2] . Its solubility change mitosis (log2) was -0.0609

Entry under test: MLQTLYDYFWWERLWLPVNLTWADLEDRDGRVYAKASDLYITLPLALLFLIVRYFFELYVATPLAALLNIKEKTRLRAPPNATLEHFYLTSGKQPKQVEVELLSRQSGLSGRQVERWFRRRRNQDRPSLLKKFREASWRFTFYLIAFIAGMAVIVDKPWFYDMKKVWEGYPIQSTIPSQYWYYMIELSFYWSLLFSIASDVKRKDFKEQIIHHVATIILISFSWFANYIRAGTLIMALHDSSDYLLESAKMFNYAGWKNTCNNIFIVFAIVFIITRLVILPFWILHCTLVYPLELYPAFFGYYFFNSMMGVLQLLHIFWAYLILRMAHKFITGKLVEDERSDREETESSEGEEAAAGGGAKSRPLANGHPILNNNHRKND [CERS2] . Its solubility change mitosis (log2) was -0.158

Entry under test: MEPQEERETQVAAWLKKIFGDHPIPQYEVNPRTTEILHHLSERNRVRDRDVYLVIEDLKQKASEYESEAKYLQDLLMESVNFSPANLSSTGSRYLNALVDSAVALETKDTSLASFIPAVNDLTSDLFRTKSKSEEIKIELEKLEKNLTATLVLEKCLQEDVKKAELHLSTERAKVDNRRQNMDFLKAKSEEFRFGIKAAEEQLSARGMDASLSHQSLVALSEKLARLKQQTIPLKKKLESYLDLMPNPSLAQVKIEEAKRELDSIEAELTRRVDMMEL [HAUS1] . Its solubility change mitosis (log2) was 0.128

Entry under test: MMGSKMASASRVVQVVKPHTPLIRFPDRRDNPKPNVSEALRSAGLPSHSSVISQHSKGSKSPDLLMYQGPPDTAEIIKTLPQKYRRKLVSQEEMEFIQRGGPE [MRPS36] . Its solubility change mitosis (log2) was 0.401

Entry under test: MASKLLRAVILGPPGSGKGTVCQRIAQNFGLQHLSSGHFLRENIKASTEVGEMAKQYIEKSLLVPDHVITRLMMSELENRRGQHWLLDGFPRTLGQAEALDKICEVDLVISLNIPFETLKDRLSRRWIHPPSGRVYNLDFNPPHVHGIDDVTGEPLVQQEDDKPEAVAARLRQYKDVAKPVIELYKSRGVLHQFSGTETNKIWPYVYTLFSNKITPIQSKEAY [AK4] . Its solubility change mitosis (log2) was 0.0928

Measured values drawn from the supplement of paper PMC5998384 for this set.
